Source listed as patent US20150252427A1.

target: T1, H-2 K^d molecules purified by affinity chromatography (human, UniProt P61769 21-119; P01902 22-305); assay: radiolabeled peptide inhibition assay, purified H-2 K^d;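 further: competitive binding with labeled probe peptide kept below MHC concentration, so IC50 approximates the dissociation constant KD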
T1 construct: MHC class I molecule, 1-10 nM in the assay, with added human beta-2 microglobulin; also called purified MHC molecules
Lab note: compare IC50 with 200 nM, writing y if less and n if equal or more.

* IYGVVARNRAL (Mut of I(y/D)GVVARNRAL; Meth A) [Dis312.1 Mut peptide] | y

query: Answer whether the binder LDYERIHKKML [Ugdh WT peptide] has IC50 strictly less than 200 nM
result: y

query: Answer whether the binder LDMLQALCI (WT of (sy/LD)MLQALCI) [Tnpo3 WT peptide] has IC50 strictly less than 200 nM
result: y

query: Answer whether the binder AYAKQFAAI (Mut of A(y/D)AKQFAAI; Meth A) [Ube4a.1 Mut peptide] has IC50 strictly less than 200 nM
result: y

query: Answer whether the binder SYMLQALCI (Mut of (sy/LD)MLQALCI; Meth A; also called mutant Tnpo3 peptide; sy-MLQALCI) [Tnpo3 Mut peptide] has IC50 strictly less than 200 nM
result: y

query: Answer whether the binder AYAKQFAA (Mut of A(y/D)AKQFAA; Meth A) [Ube4a.2 Mut peptide] has IC50 strictly less than 200 nM
result: n

query: Answer whether the binder PDLTQYAIIM [Dhx8.4 WT peptide] has IC50 strictly less than 200 nM
result: n

query: Answer whether the binder PDLTQYAII (WT of P(y/D)LTQYAII) [Dhx8.3 WT peptide] has IC50 strictly less than 200 nM
result: n

query: Answer whether the binder PDLTQYAIIML [Dhx8.1 WT peptide] has IC50 strictly less than 200 nM
result: n
